Test system: Transcriptional activator Myb (Homo sapiens)
Assay comment: ATG_Myb_CIS: Attagene CIS-FACTORIAL HepG2 Assay for human Myeloblastosis (Myb) Proto-Oncogene Transcription Factor (AID 2282986)
Protocol conditions: HepG2 Attagene CIS-FACTORIAL Myb reporter transcription; actives raise or lower the signal
The source made the active and inactive calls. How the source made its calls: active means hit-call score of the fitted dose curve at least 0.9, where 1 is the maximum; inactive means score below 0.9.
Measured attribute: outcome

- CCCCOC(=O)[C@H](C)O: inactive
- O=C(O)C(F)(F)C(F)(F)C(F)(F)OC(F)(C(F)(F)F)C(F)(F)F: inactive
- C[Si](C)O[Si](C)C: inactive
- O=C(F)C1(F)C(F)(F)C(F)(F)C(F)(F)C(F)(F)C1(F)F: inactive
- CO[Si](C)(CCC(F)(F)C(F)(F)C(F)(F)C(F)(F)C(F)(F)C(F)(F)F)OC: inactive
- NS(=O)(=O)C(F)(F)C(F)(F)C(F)(F)C(F)(F)C(F)(F)C(F)(F)F: inactive
- Cc1cnccn1: inactive

---

Assay comment: ATG_PPRE_CIS: Attagene CIS-FACTORIAL HepG2 Assay for human Peroxisome Proliferator-activated Response Element (PPRE) (AID 2282958)
Protocol conditions: HepG2 PPRE cis-element reporter, Attagene transcription factor profiling; actives raise or lower the signal
Active and inactive are the calls of the source. The calls were made as follows: active = hit-call score of the fitted dose curve at least 0.9, where 1 is the maximum; inactive = score below 0.9.
Outcome codes: 1 for active, -1 for inactive

* CCN(CC)c1ccc(N=Nc2ccccc2)cc1 | 1
* O=S(=O)(Cl)C(F)(F)C(F)(F)C(F)(F)C(F)(F)C(F)(F)C(F)(F)C(F)(F)C(F)(F)F | 1
* O=S(=O)(O)CCC(F)(F)C(F)(F)C(F)(F)C(F)(F)C(F)(F)C(F)(F)C(F)(F)C(F)(F)F | -1
* Oc1ccc2c(c1)CCC2 | -1

---

Assay comment: ATG_AP_1_CIS: Attagene CIS-FACTORIAL HepG2 Assay for human Activator Protein 1 (AP-1) (AID 2282931)
Protocol conditions: HepG2 Attagene cis-factorial AP-1 reporter mRNA; actives raise or lower the signal
Activity calls are given as the source filed them. Rule for the calls: active = hit-call score of the fitted dose curve at least 0.9, where 1 is the maximum; inactive = score below 0.9.
Labels: active, inactive

- CCCCCCCCn1sc(Cl)c(Cl)c1=O: active
- CSc1ccc(Cl)cc1: inactive
- CC(O)C#CC(C)O (stereo not given): active
- CSc1ccc(O)cc1C: inactive
- C[C@]12CC[C@H]3C(=CCc4cc(O)ccc43)[C@@H]1CCC2=O: inactive
- CCOC(=O)CCC(C)=O: inactive
- Cc1cc(=O)[nH]c(C(C)C)n1: inactive
- Cc1cnccn1: inactive
- FC(F)(F)C(F)(F)C(F)(F)C(F)(F)C(F)(F)C(F)(F)C(F)(F)CCI: inactive
- O=C(O)C(F)(F)C(F)(F)C(F)(F)C(=O)O: inactive
- Cc1ccc([N+](=O)[O-])c(C)c1: inactive
- NC(=O)C(F)(F)C(F)(F)C(F)(F)C(F)F: inactive
- CCCCCCCCCCCC(=O)Cl: active
- NC(=O)C(F)(F)C(F)(F)C(F)(F)C(F)(F)C(N)=O: inactive
- CCC(=O)OC(C)c1ccccc1 (stereo not given): inactive
- CC(C)OC=O: inactive
- CCOC(C=C(C)CCC=C(C)C)OCC: inactive
- N#CCCOCCC#N: inactive
- CN(N=O)C(=O)N[C@@H]1[C@@H](O)[C@H](O)[C@@H](CO)O[C@@H]1O: inactive
- O=C=Nc1cccc2c(N=C=O)cccc12: inactive
- O=c1[nH]cccc1O: inactive
- CCN(CC)c1ccc(C=O)cc1: inactive
- OCC(O)CC(F)(F)C(F)(F)C(F)(F)C(F)(F)F (stereo not given): inactive
- O=S(=O)(O)c1ccc(Cl)cc1: inactive
- CCOC(=O)CC(=O)C(F)(F)C(F)(F)F: inactive
- Oc1ccc(C2(c3ccc(O)c(C4CCCCC4)c3)CCCCC2)cc1C1CCCCC1: active
- OCCC(O)CO (stereo not given): inactive
- CCOC(=O)C1CC(=O)C(=C(O)C2CC2)C(=O)C1 (stereo not given): inactive
- O=C1c2c(O)ccc(Nc3ccc(CCO)cc3)c2C(=O)c2c([N+](=O)[O-])ccc(O)c21: active
- CCCCC(CC)COC(=O)c1ccc(N(C)C)cc1 (stereo not given): active
- COCCC(=O)OC: inactive
- CC(=O)c1ccccc1N: inactive
- NCC(F)(F)C(F)(F)C(F)(F)C(F)(F)C(F)(F)C(F)(F)F: inactive
- CCCCOC(=O)[C@H](C)O: inactive
- Cc1ccc(O)c(-n2nc3ccccc3n2)c1: inactive
- F[Si-2](F)(F)(F)(F)F: inactive
- CCOCOCC: inactive
- O=C(c1ccccc1)c1ccc(O)cc1O: inactive
- O=S(=O)(O)CCC(F)(F)C(F)(F)C(F)(F)C(F)(F)C(F)(F)C(F)(F)C(F)(F)C(F)(F)F: inactive
- C=CCOC(=O)CC(C)C: inactive
- FC(F)(F)C(F)(F)C(F)(F)CC1CO1 (stereo not given): inactive
- O=C(O)C(F)(F)C(F)(F)C(F)(F)OC(F)(F)F: inactive
- CCn1c2ccccc2c2ccccc21: active
- OCC(F)(F)C(F)(F)C(F)(F)CO: inactive
- O=c1cccc[nH]1: inactive
- O=C=NCc1cccc(CN=C=O)c1: inactive
- NC(=O)C(F)(F)C(F)(F)C(F)(F)C(F)(F)C(F)(F)C(F)(F)C(F)(F)F: inactive
- CCN(CC)c1ccc(C=O)c(O)c1: inactive
- CCc1ccc(C)nc1: inactive
- CCN(CCO)S(=O)(=O)C(F)(F)C(F)(F)C(F)(F)C(F)(F)C(F)(F)C(F)(F)C(F)(F)C(F)(F)F: inactive
